target: Neutrophil elastase (Homo sapiens); experiment: Catalytic rate constant (Kobs/[I]) against human leukocyte elastase was determined
assay.metric: K obs / 1 (M⁻¹ s⁻¹)
All answers are understood in M⁻¹ s⁻¹, so give the number only.

# input Look up and state reported K obs / 1 for CS(=O)(=O)ON1C(=O)CC(Cc2ccccc2)C1=O (stereo not given)
# output 1050

# input Hello, please tell me recorded K obs / 1 for this one: O=C1CC(Cc2ccccc2)C(=O)N1OS(=O)(=O)/C=C/c1ccccc1 (stereo not given)
# output 9430

# input Return K obs / 1 (reported value) for this compound: CS(=O)(=O)ON1C(=O)CC(Cc2cccc(F)c2)C1=O (stereo not given)
# output 373

# input Find the measured K obs / 1 of O=C1CC(Cc2ccccc2)C(=O)N1OS(=O)(=O)c1ccc(Br)cc1 (stereo not given) and report it.
# output 1650

# input Quickly give me recorded K obs / 1 for CC(C)S(=O)(=O)ON1C(=O)CC(Cc2ccccc2)C1=O (stereo not given)
# output 1100

# input Answer with the recorded K obs / 1 for the compound listed here: O=C1CC(Cc2ccccc2)C(=O)N1OS(=O)(=O)c1cccc(C(F)(F)F)c1 (stereo not given)
# output 316

# input Dear colleague, please send me the reported K obs / 1 for O=C1CC(Cc2ccccc2C(F)(F)F)C(=O)N1OS(=O)(=O)/C=C/c1ccccc1 (stereo not given) when you can.
# output 1860

# input Read off the recorded K obs / 1 for CS(=O)(=O)ON1C(=O)CC(Cc2cccc(C(F)(F)F)c2)C1=O (stereo not given)
# output 217

# input Please report K obs / 1 for the following compound: O=C1CC(Cc2ccccc2)C(=O)N1OS(=O)(=O)c1ccccc1 (stereo not given)
# output 1170

# input Please give measured K obs / 1 of the following entry: O=C1CC(Cc2ccccc2)C(=O)N1OS(=O)(=O)c1ccc2ccccc2c1 (stereo not given)
# output 1580

# input Please report K obs / 1 for the following compound: CC(C)CCC1CC(=O)N(OS(C)(=O)=O)C1=O (stereo not given)
# output 361

# input // Input: O=C1CC(Cc2ccccc2)C(=O)N1OS(=O)(=O)c1ccc(F)cc1 (stereo not given) . Output its K obs / 1 only.
# output 1110

# input Let me know recorded K obs / 1 for Cc1ccc(S(=O)(=O)ON2C(=O)CC(Cc3ccccc3)C2=O)cc1 (stereo not given) , thanks.
# output 1610

# input Answer with the recorded K obs / 1 of O=C1CC(Cc2ccccc2)C(=O)N1OS(=O)(=O)c1cccc2ccccc12 (stereo not given) only.
# output 620

# input For the compound O=C1CC(Cc2ccccc2)C(=O)N1OS(=O)(=O)Cc1ccccc1 (stereo not given) , give its measured K obs / 1 value.
# output 770

# input Determine its reported K obs / 1: CC(C)CCC1CC(=O)N(OS(=O)(=O)/C=C/c2ccccc2)C1=O (stereo not given)
# output 2250

# input Please give measured K obs / 1 of the following entry: CS(=O)(=O)ON1C(=O)CC(Cc2ccc(C(F)(F)F)cc2)C1=O (stereo not given)
# output 84

# input Quick one: give measured K obs / 1 for CS(=O)(=O)ON1C(=O)CC(Cc2ccccc2C(F)(F)F)C1=O (stereo not given)
# output 189

# input Provide one value: measured K obs / 1 of CN(C)S(=O)(=O)ON1C(=O)CC(Cc2ccccc2)C1=O (stereo not given)
# output 323

# input Consider the compound CC(C)C1CC(=O)N(OS(C)(=O)=O)C1=O (stereo not given) and give its recorded K obs / 1.
# output 3820

# input Could you please provide reported K obs / 1 for CCCCCCCCS(=O)(=O)ON1C(=O)CC(Cc2ccccc2)C1=O (stereo not given) ? Thanks!
# output 1270

# input Using known records, supply K obs / 1 for CCCCS(=O)(=O)ON1C(=O)CC(Cc2ccccc2)C1=O (stereo not given)
# output 1680

# input Indicate the recorded K obs / 1 value for this compound: CC(C)CC1CC(=O)N(OS(C)(=O)=O)C1=O (stereo not given)
# output 49300
